Tested on: 922993-354-T-J3-PDC complex spheroids, viability, % test/control;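 note: spheroids exposed to the agents for 7 days before readout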
Test: Anticancer human tumor 922993-354-T-J3-PDC patient-derived endometrial carcinoma cell line growth inhibition [CLK]
Details: curve of first compound; second compound 3.16 µM
Each entry below lists one item and its recorded IC50 value.
attributeMeasured: IC50

{"molecule": "CC(C)CC(NC(=O)C(Cc1ccccc1)NC(=O)c1cnccn1)B(O)O (configuration not stated) + CN1CCN(c2cc(C(=O)Nc3cc4cc(-c5cnn(C)c5)ccc4cn3)ccn2)CC1", "valueMeasured": "< 0.949 nM"}
{"molecule": "C=C(F)C(=O)N1CCN(c2nc(OCC3CCCN3C)nc3c2CCN(c2cccc4cccc(Cl)c24)C3)CC1CC#N (configuration not stated) + CNC(=O)c1ccc(Nc2nc(OC3CCCC3)c3c(-c4ccc5nc(C)oc5c4)c[nH]c3n2)c(OC)c1", "valueMeasured": "< 31.6 nM"}
{"molecule": "C#Cc1c(F)ccc2cc(O)cc(-c3ncc4c(N5CC6CCC(C5)N6)nc(OCC56CCCN5CC(F)C6)nc4c3F)c12 (configuration not stated) + CNC(=O)c1ccc(Nc2nc(OC3CCCC3)c3c(-c4ccc5nc(C)oc5c4)c[nH]c3n2)c(OC)c1", "valueMeasured": "< 31.6 nM"}
{"molecule": "COc1cccc2c1C(=O)c1c(O)c3c(c(O)c1C2=O)CC(O)(C(=O)CO)CC3OC1CC(N)C(O)C(C)O1 (configuration not stated) + CN1CCN(c2cc(C(=O)Nc3cc4cc(-c5cnn(C)c5)ccc4cn3)ccn2)CC1", "valueMeasured": "< 31.6 nM"}
{"molecule": "NC(=O)C(=Cn1cnc(-c2cc(C(F)(F)F)cc(C(F)(F)F)c2)n1)c1cncnc1 + CNC(=O)c1ccc(Nc2nc(OC3CCCC3)c3c(-c4ccc5nc(C)oc5c4)c[nH]c3n2)c(OC)c1", "valueMeasured": "44.6 nM"}
{"molecule": "CC1(C)CCC(CN2CCN(c3ccc(C(=O)NS(=O)(=O)c4ccc(NCC5CCOCC5)c([N+](=O)[O-])c4)c(Oc4cnc5[nH]ccc5c4)c3)CC2)=C(c2ccc(Cl)cc2)C1 + CNC(=O)c1ccc(Nc2nc(OC3CCCC3)c3c(-c4ccc5nc(C)oc5c4)c[nH]c3n2)c(OC)c1", "valueMeasured": "< 31.6 nM"}
{"molecule": "Cn1ncnc1[C@H]1c2n[nH]c(=O)c3cc(F)cc(c23)N[C@@H]1c1ccc(F)cc1 + CNC(=O)c1ccc(Nc2nc(OC3CCCC3)c3c(-c4ccc5nc(C)oc5c4)c[nH]c3n2)c(OC)c1", "valueMeasured": "< 0.316 nM"}
